Target: BuChE from horse serum (Equus caballus)
Construct: BuChE from horse serum (C4290-1KU; Sigma); purchased Sigma C4290-1KU; host or cells: horse serum
Sequence (P81908 whole entry): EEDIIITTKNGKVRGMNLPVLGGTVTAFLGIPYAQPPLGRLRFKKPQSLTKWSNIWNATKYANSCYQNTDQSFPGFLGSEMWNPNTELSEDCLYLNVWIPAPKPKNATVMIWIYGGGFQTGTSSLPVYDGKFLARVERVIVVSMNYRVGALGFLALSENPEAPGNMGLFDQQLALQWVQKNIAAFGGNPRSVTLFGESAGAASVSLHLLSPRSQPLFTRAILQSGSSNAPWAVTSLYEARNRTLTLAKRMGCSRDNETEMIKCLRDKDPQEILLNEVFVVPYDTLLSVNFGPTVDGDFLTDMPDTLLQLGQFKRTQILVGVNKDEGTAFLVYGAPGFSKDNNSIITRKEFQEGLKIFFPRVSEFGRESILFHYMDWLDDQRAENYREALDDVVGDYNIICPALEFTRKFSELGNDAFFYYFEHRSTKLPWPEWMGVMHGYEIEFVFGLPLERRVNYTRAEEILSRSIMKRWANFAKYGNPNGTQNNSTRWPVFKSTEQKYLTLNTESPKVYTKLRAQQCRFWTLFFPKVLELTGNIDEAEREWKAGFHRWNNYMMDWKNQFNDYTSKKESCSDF
Test: biochemical
Type: biochemical
Settings: BuChE from horse serum; 20 µM; na = no inhibitory activity at 20 µM
measure-name: BuChE % inhibition at 20 µM (%)
One number for each entry, in %.

compound	BuChE % inhibition at 20 µM, %
Cc1nn(-c2ccccn2)c(OS(=O)(=O)F)c1C [Compound K12]	20.7

State recorded BuChE % inhibition at 20 µM for all listed compounds.
1. Cc1nn(-c2ccccc2)c(OS(=O)(=O)F)c1C [Compound K11]
2. CC(C)(C)n1nc(-c2ccccc2)cc1OS(=O)(=O)F [Compound K9]

*A*
1: 45.2; 2: 30.9
